# study_target: Low molecular weight phosphotyrosine protein phosphatase (Homo sapiens)
# Sequence (P24666 whole entry, canonical isoform): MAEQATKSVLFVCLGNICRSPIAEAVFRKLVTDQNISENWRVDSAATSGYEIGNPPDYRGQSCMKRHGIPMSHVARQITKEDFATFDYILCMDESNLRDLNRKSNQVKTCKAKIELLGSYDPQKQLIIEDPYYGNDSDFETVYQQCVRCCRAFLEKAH
# measurement_notes: Inhibition of human LMW-PTPase isoform 1
pIC50: −log10 of the molar value.
Entry flag: label 1 if pIC50 reaches 4; label 0 if it does not.

> print(dat)
                                smiles.text                              study.target  category
1                      Nc1ccncc1CCP(=O)(O)O  Low molecular weight phosphotyrosine protein phosphatase (Homo sapiens)   label 0
2                      Nc1ccccc1CCP(=O)(O)O  Low molecular weight phosphotyrosine protein phosphatase (Homo sapiens)   label 0
3  O=C(O)c1ccc(COc2ccc(/C=C3\S/C(=N\c4ccccc4)N(Cc4ccc(C(=O)O)cc4)C3=O)cc2)cc1  Low molecular weight phosphotyrosine protein phosphatase (Homo sapiens)   label 1
4                 O=P(O)(O)CCc1cccc2ccccc12  Low molecular weight phosphotyrosine protein phosphatase (Homo sapiens)   label 0
5  O=C(O)c1ccc(COc2cccc(/C=C3\S/C(=N\c4ccccc4)N(Cc4ccc(C(=O)O)cc4)C3=O)c2)cc1  Low molecular weight phosphotyrosine protein phosphatase (Homo sapiens)   label 1
6                   Nc1ccccc1/C=C/P(=O)(O)O  Low molecular weight phosphotyrosine protein phosphatase (Homo sapiens)   label 0
7               O=P(O)(O)CCc1cncc2cc[nH]c12  Low molecular weight phosphotyrosine protein phosphatase (Homo sapiens)   label 0
